All figures here come from patent US12145927B2.

Target: human IDO1 (Homo sapiens, UniProt P14902)
Sequence (P14902 whole entry): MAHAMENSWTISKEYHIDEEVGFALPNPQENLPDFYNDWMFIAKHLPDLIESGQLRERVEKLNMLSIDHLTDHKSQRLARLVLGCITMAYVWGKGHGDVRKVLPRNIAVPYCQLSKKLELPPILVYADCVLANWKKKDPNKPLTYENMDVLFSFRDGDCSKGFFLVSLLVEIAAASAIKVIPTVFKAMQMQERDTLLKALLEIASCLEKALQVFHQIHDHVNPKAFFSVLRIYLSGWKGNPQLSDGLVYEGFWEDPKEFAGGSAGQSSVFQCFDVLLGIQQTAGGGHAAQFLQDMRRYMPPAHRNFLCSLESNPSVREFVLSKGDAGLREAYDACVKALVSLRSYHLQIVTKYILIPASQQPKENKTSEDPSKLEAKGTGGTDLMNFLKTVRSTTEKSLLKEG
Experiment: IDO inhibition assay in human IDO1/HEK293 cells (IDO1 HEK Human)
Conditions: HEK293 cells stably expressing human IDO1; 20 hours incubation; absorbance at 490 nm after Ehrlich reagent
Protocol: HEK293 cells were transfected with a pCDNA-based mammalian expression vector harboring human IDO1 cDNA (NM 002164.2) by electroporation. They were cultured in medium (DMEM with 10% FBS) containing 1 mg/ml G418 for two weeks. […] The compound treatments were stopped by adding trichloroacetic acid (Sigma-Aldrich) to a final concentration at 0.2%. […] The absorbance at 490 nm was measured on Envision plate reader. […]
pIC50: −log10 of the molar value.
Decide using pIC50: a value greater than or equal to 7 is 1, a smaller one is -1.

[
  {
    "compound": "Fc1cnc(Nc2cc(-c3ccccc3-c3nnn[nH]3)cc3c2OCCCC3c2ccccc2)nc1 (single isomer, unassigned) [63 (En. 1)]",
    "assay target": "human IDO1 (Homo sapiens, UniProt P14902)",
    "discrete label": -1
  },
  {
    "compound": "C=C[C@H]1Oc2c(NC(=O)Nc3ccc(C)cc3)cc(-c3ccccc3-c3nnn[nH]3)cc2[C@@H]1CCC(F)(F)F (racemic) [Example 94]",
    "assay target": "human IDO1 (Homo sapiens, UniProt P14902)",
    "discrete label": 1
  },
  {
    "compound": "Fc1cnc(Nc2cc(-c3ccccc3-c3nnn[nH]3)cc3c2OCCCC3c2ccccc2)nc1 (single isomer, unassigned) [63 (En-2)]",
    "assay target": "human IDO1 (Homo sapiens, UniProt P14902)",
    "discrete label": 1
  },
  {
    "compound": "C=C[C@H]1Oc2c(NC(=O)Nc3ccc(C)cc3)cc(-c3ccccc3-c3nnn[nH]3)cc2[C@@H]1c1ccccc1 (racemic) [Example 85]",
    "assay target": "human IDO1 (Homo sapiens, UniProt P14902)",
    "discrete label": 1
  },
  {
    "compound": "C=CC1Oc2c(NC(=O)Nc3ccc(CC)cc3)cc(-c3ccccc3-c3nnn[nH]3)cc2C1CCC(F)(F)F (racemic) [Example 99]",
    "assay target": "human IDO1 (Homo sapiens, UniProt P14902)",
    "discrete label": 1
  },
  {
    "compound": "Cc1ccc(NC(=O)Nc2cc(-c3ccccc3-c3nnn[nH]3)cc3c2OCCCC3C(C)C)cc1 (single isomer, unassigned) [24 (En. 2)]",
    "assay target": "human IDO1 (Homo sapiens, UniProt P14902)",
    "discrete label": 1
  },
  {
    "compound": "FC(F)(F)c1cnc(Nc2cc(-c3ccccc3-c3nnn[nH]3)cc3c2OCCCC3c2ccccc2)nc1 (stereo not shown) [Example 54]",
    "assay target": "human IDO1 (Homo sapiens, UniProt P14902)",
    "discrete label": -1
  },
  {
    "compound": "O=C(Cc1ccccc1F)Nc1cc(-c2ccccc2-c2nnn[nH]2)cc2c1OCCCC2C1CC1 (single isomer, unassigned) [40 (En. 1)]",
    "assay target": "human IDO1 (Homo sapiens, UniProt P14902)",
    "discrete label": -1
  },
  {
    "compound": "Cc1ccc(NC(=O)Nc2cc(-c3ccccc3S(=O)(=O)NC(=O)c3ccccc3)cc3c2OCCCC3c2ccccc2)cc1 (single isomer, unassigned) [60 (En. 1)]",
    "assay target": "human IDO1 (Homo sapiens, UniProt P14902)",
    "discrete label": -1
  },
  {
    "compound": "C=CC1Oc2c(NC(=O)Nc3ccc(C)cc3)cc(C3(c4nnn[nH]4)CC3)cc2C1c1ccccc1 (racemic) [Example 112]",
    "assay target": "human IDO1 (Homo sapiens, UniProt P14902)",
    "discrete label": -1
  }
]
